# pIC50 measurements, system: Protease (Human immunodeficiency virus 1)
FYI, pIC50 means -log10 of a concentration in mol per litre.

Some solved entries appear below for comparison.
Input: Look up pIC50: CCOc1ccc(OCC)c(SC2=C(O)CC(COc3cccc4ccccc34)(c3ccccc3)OC2=O)c1 (racemic)
Output: 8.46

Input: Now give it for Cc1ccc(C)c(SC2=C(O)CC(COc3ccc4ccccc4c3)(c3ccccc3)OC2=O)c1 (racemic) too.
Output: 7.19

Let us examine a further case.
Input: Look up pIC50: Cc1ccccc1SC1=C(O)CC(CSc2ccccc2)(c2ccccc2)OC1=O (racemic)
Output: 6.62

* * *

Assay: Therapeutic index, ratio of TC50 for human CEM174 cells to EC50 for SIV infected in human CEM174 cells
Type: cell-based
Conditions: CEM174 cells (uninfected for TC50, SIV-infected for EC50), read-out: TI
readout label: selectivity ratio

Input: Look up selectivity ratio: CC(C)(C)NC(=O)[C@@H]1CN(Cc2cccnc2)CCN1C[C@@H](O)C[C@@H](Cc1ccccc1)C(=O)N[C@H]1c2ccccc2C[C@H]1O
Output: > 1000

* * *

Target: Protease (Human immunodeficiency virus 1)
Experiment: Inhibition of Human immunodeficiency virus 1 protease using Lys-Ala-Arg-Val-Leu-Phe(NO2)-Glu-Ala-Met as substrate
pIC50: −log10 of the molar value.
Answer Not fulfilled if pIC50 is under 7, and Fulfilled if it is 7 or more.

Input: Is it the case that O=C1OC(COc2cccc3ccccc23)(c2ccccc2)CC(O)=C1Sc1ccccc1Cl (racemic) has pIC50 reaching or exceeding 7?
Output: Fulfilled

Input: Now give it for CCc1ccccc1SC1=C(O)CC(COc2ccc3ccccc3c2)(c2ccccc2)OC1=O (racemic) too.
Output: Fulfilled

Input: Now give it for CCOc1ccc(OCC)c(SC2=C(O)CC(CSc3ccccc3)(c3ccccc3)OC2=O)c1 (racemic) too.
Output: Fulfilled

Input: Now give it for Cc1ccc(C)c(SC2=C(O)CC(CSc3ccccc3)(c3ccccc3)OC2=O)c1 (racemic) too.
Output: Not fulfilled

Input: Now give it for O=C1OC(CSc2ccccc2)(c2ccccc2)CC(O)=C1SCc1ccccc1 (racemic) too.
Output: Fulfilled

Pending compound:
Input: Is it the case that O=C1OC(CSc2ccccc2)(c2ccccc2)CC(O)=C1Sc1ccccc1 (racemic) has pIC50 reaching or exceeding 7?
Output: Not fulfilled

* * *

# pIC50 measurements, system: Protease (Human immunodeficiency virus 1, UniProt Q9YQ12)
# Sequence (Q9YQ12 whole entry): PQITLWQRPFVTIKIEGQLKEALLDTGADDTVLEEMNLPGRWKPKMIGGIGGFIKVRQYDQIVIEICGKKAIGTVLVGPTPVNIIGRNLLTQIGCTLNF
FYI, pIC50 means -log10 of a concentration in mol per litre.

Some solved entries appear below for comparison.
Input: Look up pIC50: Cc1ccc(C)c(SC2=C(O)CC(COc3cccc4ccccc34)(c3ccccc3)OC2=O)c1 (racemic)
Output: 6.90

Input: Now give it for O=C1OC(COc2ccc3ccccc3c2)(c2ccccc2)CC(O)=C1Sc1ccccc1 (racemic) too.
Output: 6.90

Let us examine a further case.
Input: Look up pIC50: O=C1OC(COc2ccc3ccccc3c2)(c2ccccc2)CC(O)=C1Sc1ccccc1Cl (racemic)
Output: 7.05
